EXPERIMENT: Cytotoxicity against HNDF cells harboring wild type p53 assessed as reduction in cell viability after 48 hrs by 7AAD-staining based FACS analysis
Assay type: toxicity
CONDITION DETAILS: human, HNDF cells harboring wild type p53; read-out: LD50
Please note: CC50 at 48 h exactly at 500 nM is not satisfied. Only values below 500 nM get satisfied.

Problem: For the compound C=CCOc1ccc(CCC(=O)c2ccc(C(=O)N[C@@H](Cc3ccc(OCC=C)cc3)C(=O)N[C@@H](CC(C)C)B3O[C@@H]4C[C@@H]5C[C@@H](C5(C)C)[C@]4(C)O3)[nH]2)cc1 , is CC50 at 48 h under 500 nM?
Solution: not satisfied

Problem: For the compound CC(C)C[C@H](NC(=O)[C@H](CCc1ccccc1)NC(=O)CN1CCOCC1)C(=O)N[C@@H](Cc1ccccc1)C(=O)N[C@@H](CC(C)C)C(=O)[C@@]1(C)CO1 , is CC50 at 48 h under 500 nM?
Solution: satisfied

Problem: For the compound CC(C)C[C@H](NC(=O)[C@H](Cc1ccccc1)NC(=O)c1cnccn1)B(O)O , is CC50 at 48 h under 500 nM?
Solution: satisfied

Problem: For the compound CC[C@H](C)[C@H](NC(=O)[C@H](CCCCN=[N+]=[N-])NC(=O)OCc1ccccc1)C(=O)N[C@@H](Cc1ccccc1)B1O[C@@H]2C[C@@H]3C[C@@H](C3(C)C)[C@]2(C)O1 , is CC50 at 48 h under 500 nM?
Solution: satisfied

====

What IC50 was measured for each of the following?
EXPERIMENT: Inhibition of caspase like activity of rabbit 20S proteasome using Ac-nLPnLD-AMC as substrate preincubated for 15 mins followed by substrate addition measured after 2 hrs by fluorescence-based assay
Design: species or system Oryctolagus cuniculus

Problem: // lookup IC50 for CC[C@H](C)[C@H](NC(=O)[C@H](CCCCN=[N+]=[N-])NC(=O)OCc1ccccc1)C(=O)N[C@@H](Cc1ccccc1)B1O[C@@H]2C[C@@H]3C[C@@H](C3(C)C)[C@]2(C)O1
Solution: 2.45 µM

Problem: // lookup IC50 for C=CCOc1ccc(CCC(=O)c2ccc(C(=O)N[C@@H](Cc3ccc(OCC=C)cc3)C(=O)N[C@@H](Cc3ccccc3)B3O[C@@H]4C[C@@H]5C[C@@H](C5(C)C)[C@]4(C)O3)[nH]2)cc1
Solution: 3.34 µM

Problem: // lookup IC50 for C=CCOc1ccc(CCC(=O)c2ccc(C(=O)N[C@@H](Cc3ccc(OCC=C)cc3)C(=O)N[C@@H](CC(C)C)B3O[C@@H]4C[C@@H]5C[C@@H](C5(C)C)[C@]4(C)O3)[nH]2)cc1
Solution: 4.18 µM

Problem: // lookup IC50 for CC(C)C[C@H](NC(=O)[C@H](Cc1ccccc1)NC(=O)c1cnccn1)B(O)O [BORTEZOMIB]
Solution: 0.108 µM

Problem: // lookup IC50 for CC[C@H](C)[C@H](NC(=O)[C@H](CCCCN=[N+]=[N-])NC(=O)OCc1ccccc1)C(=O)N[C@@H](CC(C)C)B1O[C@@H]2C[C@@H]3C[C@@H](C3(C)C)[C@]2(C)O1
Solution: 1.6 µM

Problem: // lookup IC50 for CC(C)C[C@H](NC(=O)[C@H](CCc1ccccc1)NC(=O)CN1CCOCC1)C(=O)N[C@@H](Cc1ccccc1)C(=O)N[C@@H](CC(C)C)C(=O)[C@@]1(C)CO1 [CARFILZOMIB]
Solution: > 25 µM

====

EXPERIMENT: Inhibition of bovine alpha chymotrypsin using Ala-Ala-Phe-7-AMC as substrate measured for 10 mins by spectrophotometric analysis
Set-up: species or system Bos taurus
MEASUREMENT NAME: Ki (µM)
Entry rule: numbers only, all in µM.

Problem: // lookup Ki for C=CCOc1ccc(CCC(=O)c2ccc(C(=O)N[C@@H](Cc3ccc(OCC=C)cc3)C(=O)N[C@@H](Cc3ccccc3)B3O[C@@H]4C[C@@H]5C[C@@H](C5(C)C)[C@]4(C)O3)[nH]2)cc1
Solution: 1.31

Problem: // lookup Ki for CC[C@H](C)[C@H](NC(=O)[C@H](CCCCN=[N+]=[N-])NC(=O)OCc1ccccc1)C(=O)N[C@@H](Cc1ccccc1)B1O[C@@H]2C[C@@H]3C[C@@H](C3(C)C)[C@]2(C)O1
Solution: 7.13

Problem: // lookup Ki for CC(C)C[C@H](NC(=O)[C@H](Cc1ccccc1)NC(=O)c1cnccn1)B(O)O [BORTEZOMIB]
Solution: 1.82

====

EXPERIMENT: Cytotoxicity against human KGN cells harboring wild type p53 assessed as reduction in cell viability after 48 hrs by 7AAD-staining based FACS analysis
Format: functional
CONDITION DETAILS: read-out: LD50 (the source's name)
What CC50 was measured for each of the following?
Entry rule: numbers only, all in nM.

Problem: // lookup CC50 for CC[C@H](C)[C@H](NC(=O)[C@H](CCCCN=[N+]=[N-])NC(=O)OCc1ccccc1)C(=O)N[C@@H](Cc1ccccc1)B1O[C@@H]2C[C@@H]3C[C@@H](C3(C)C)[C@]2(C)O1
Solution: 48

Problem: // lookup CC50 for CC(C)C[C@H](NC(=O)[C@H](CCc1ccccc1)NC(=O)CN1CCOCC1)C(=O)N[C@@H](Cc1ccccc1)C(=O)N[C@@H](CC(C)C)C(=O)[C@@]1(C)CO1 [CARFILZOMIB]
Solution: 450

Problem: // lookup CC50 for CC[C@H](C)[C@H](NC(=O)[C@H](CCCCN=[N+]=[N-])NC(=O)OCc1ccccc1)C(=O)N[C@@H](CC(C)C)B1O[C@@H]2C[C@@H]3C[C@@H](C3(C)C)[C@]2(C)O1
Solution: 65

Problem: // lookup CC50 for C=CCOc1ccc(CCC(=O)c2ccc(C(=O)N[C@@H](Cc3ccc(OCC=C)cc3)C(=O)N[C@@H](CC(C)C)B3O[C@@H]4C[C@@H]5C[C@@H](C5(C)C)[C@]4(C)O3)[nH]2)cc1
Solution: 180

Problem: // lookup CC50 for CC(C)C[C@H](NC(=O)[C@H](Cc1ccccc1)NC(=O)c1cnccn1)B(O)O [BORTEZOMIB]
Solution: 180

====

Organism: Oryctolagus cuniculus
EXPERIMENT: Selectivity ratio of IC50 for caspase like activity of rabbit 20S proteasome to IC50 for chymotrypsin like activity of rabbit 20S proteasome
What Ratio IC50 was measured for each of the following?
Format: numeric value only, no unit, no commentary.

Problem: // lookup Ratio IC50 for C=CCOc1ccc(CCC(=O)c2ccc(C(=O)N[C@@H](Cc3ccc(OCC=C)cc3)C(=O)N[C@@H](Cc3ccccc3)B3O[C@@H]4C[C@@H]5C[C@@H](C5(C)C)[C@]4(C)O3)[nH]2)cc1
Solution: 32.1

Problem: // lookup Ratio IC50 for CC[C@H](C)[C@H](NC(=O)[C@H](CCCCN=[N+]=[N-])NC(=O)OCc1ccccc1)C(=O)N[C@@H](Cc1ccccc1)B1O[C@@H]2C[C@@H]3C[C@@H](C3(C)C)[C@]2(C)O1
Solution: 117

Problem: // lookup Ratio IC50 for C=CCOc1ccc(CCC(=O)c2ccc(C(=O)N[C@@H](Cc3ccc(OCC=C)cc3)C(=O)N[C@@H](CC(C)C)B3O[C@@H]4C[C@@H]5C[C@@H](C5(C)C)[C@]4(C)O3)[nH]2)cc1
Solution: 200

Problem: // lookup Ratio IC50 for CC[C@H](C)[C@H](NC(=O)[C@H](CCCCN=[N+]=[N-])NC(=O)OCc1ccccc1)C(=O)N[C@@H](CC(C)C)B1O[C@@H]2C[C@@H]3C[C@@H](C3(C)C)[C@]2(C)O1
Solution: 113

====

EXPERIMENT: Cytotoxicity against human MCF7 cells harboring wild type p53 assessed as reduction in cell viability after 48 hrs by 7AAD-staining based FACS analysis
Assay type: functional
CONDITION DETAILS: MCF7, 48 h, read-out: LD50 (the source's name)
Please note: CC50 exactly at 2000 nM is not satisfied. Only values below 2000 nM get satisfied.

Problem: For the compound C=CCOc1ccc(CCC(=O)c2ccc(C(=O)N[C@@H](Cc3ccc(OCC=C)cc3)C(=O)N[C@@H](CC(C)C)B3O[C@@H]4C[C@@H]5C[C@@H](C5(C)C)[C@]4(C)O3)[nH]2)cc1 , is CC50 under 2000 nM?
Solution: not satisfied

Problem: For the compound CC(C)C[C@H](NC(=O)[C@H](Cc1ccccc1)NC(=O)c1cnccn1)B(O)O , is CC50 under 2000 nM?
Solution: not satisfied

Problem: For the compound CC[C@H](C)[C@H](NC(=O)[C@H](CCCCN=[N+]=[N-])NC(=O)OCc1ccccc1)C(=O)N[C@@H](Cc1ccccc1)B1O[C@@H]2C[C@@H]3C[C@@H](C3(C)C)[C@]2(C)O1 , is CC50 under 2000 nM?
Solution: satisfied

Problem: For the compound CC(C)C[C@H](NC(=O)[C@H](CCc1ccccc1)NC(=O)CN1CCOCC1)C(=O)N[C@@H](Cc1ccccc1)C(=O)N[C@@H](CC(C)C)C(=O)[C@@]1(C)CO1 , is CC50 under 2000 nM?
Solution: not satisfied

Problem: For the compound CC[C@H](C)[C@H](NC(=O)[C@H](CCCCN=[N+]=[N-])NC(=O)OCc1ccccc1)C(=O)N[C@@H](CC(C)C)B1O[C@@H]2C[C@@H]3C[C@@H](C3(C)C)[C@]2(C)O1 , is CC50 under 2000 nM?
Solution: satisfied
